System: KRAS PDC multicell spheroid viability;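 further: spheroids exposed to compounds for 7 days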
protocol-description: Anticancer human tumor 825966-067-R-J1-PDC patient-derived colon carcinoma cell line growth inhibition [KRAS2]
protocol-conditions: curve of first compound; second compound 0.0316 µM
property-label: IC50

Worked cases, answers included:
compound | experimental-target | IC50
COC(=O)c1ccc2c(C(=Nc3ccc(N(C)C(=O)CN4CCN(C)CC4)cc3)c3ccccc3)c(O)[nH]c2c1 + C=CC(=O)N1CCN(c2nc(OCC3CCCN3C)nc3c2CCN(c2cccc4cccc(C)c24)C3)CC1CC#N | KRAS PDC multicell spheroid viability | 591 nM
Cn1ncnc1[C@H]1c2n[nH]c(=O)c3cc(F)cc(c23)N[C@@H]1c1ccc(F)cc1 + C=CC(=O)N1CCN(c2nc(OCC3CCCN3C)nc3c2CCN(c2cccc4cccc(C)c24)C3)CC1CC#N | KRAS PDC multicell spheroid viability | > 100 nM
CC(=O)Nc1cccc(-n2c(=O)n(C3CC3)c(=O)c3c(Nc4ccc(I)cc4F)n(C)c(=O)c(C)c32)c1 + C=CC(=O)N1CCN(c2nc(OCC3CCCN3C)nc3c2CCN(c2cccc4cccc(C)c24)C3)CC1CC#N | KRAS PDC multicell spheroid viability | 31.6 nM
CCNC(=O)CC1N=C(c2ccc(Cl)cc2)c2cc(OC)ccc2-n2c(C)nnc21 (stereo unspecified) + C=CC(=O)N1CCN(c2nc(OCC3CCCN3C)nc3c2CCN(c2cccc4cccc(C)c24)C3)CC1CC#N | KRAS PDC multicell spheroid viability | > 10000 nM

// query State the recorded IC50 for this entry: CC1(C)CCC(CN2CCN(c3ccc(C(=O)NS(=O)(=O)c4ccc(NCC5CCOCC5)c([N+](=O)[O-])c4)c(Oc4cnc5[nH]ccc5c4)c3)CC2)=C(c2ccc(Cl)cc2)C1 + C=CC(=O)N1CCN(c2nc(OCC3CCCN3C)nc3c2CCN(c2cccc4cccc(C)c24)C3)CC1CC#N
// result 1850 nM

// query State the recorded IC50 for this entry: O=C(c1cc(Cc2n[nH]c(=O)c3ccccc23)ccc1F)N1CCN(C(=O)C2CC2)CC1 + C=CC(=O)N1CCN(c2nc(OCC3CCCN3C)nc3c2CCN(c2cccc4cccc(C)c24)C3)CC1CC#N
// result > 10000 nM
